assay: Metabolic stability in human hepatic microsomes assessed as parent compound remaining at 1 uM after 30 mins in presence of NADPH by LC-MS/MS analysis relative to control; format: ADME, Microsome; details: liver microsomes, read-out: Stability
attribute_measured: remaining at 0.5 h, 1 µM

Known remaining at 0.5 h, 1 µM results, listed for orientation:
INSERT INTO assay_data (compound_smiles, attribute_measured, result) VALUES
  ('O=C(c1cccc(F)c1)N1CCc2oc(-c3ccc(F)cn3)nc2C1', 'remaining at 0.5 h, 1 µM', '91 to 97%'),
  ('O=C(c1cc(F)cc(Cl)c1)N1CCn2nc(-c3ccc(F)cn3)cc2C1', 'remaining at 0.5 h, 1 µM', '> 97%'),
  ('COc1cccc(C(=O)N2CCc3oc(-c4ccc(F)cn4)nc3C2)c1', 'remaining at 0.5 h, 1 µM', '> 91%'),
  ('N#Cc1cc(F)cc(C(=O)N2CCc3oc(-c4ccc(F)cn4)nc3C2)c1', 'remaining at 0.5 h, 1 µM', '> 97%'),
  ('O=C(c1ccccc1F)N1CCc2oc(-c3ccc(F)cn3)nc2C1', 'remaining at 0.5 h, 1 µM', '> 91%');

Field: remaining at 0.5 h, 1 µM. Fill in for each record below.
1. O=C(c1ccccc1)N1CCc2oc(-c3ccc(F)cn3)nc2C1
2. O=C(c1cccc(Cl)c1)N1CCc2oc(-c3ccc(F)cn3)nc2C1

["91 to 97%", "> 91%"]

Field: remaining at 0.5 h, 1 µM. Fill in for each record below.
1. Cc1cc(Cl)cc(C(=O)N2CCc3oc(-c4ccc(F)cn4)nc3C2)c1
2. O=C(c1cc(F)cc(Cl)c1)N1CCc2oc(-c3ccc(F)cn3)nc2C1
3. O=C(c1ccc(F)cc1)N1CCc2oc(-c3ccc(F)cn3)nc2C1

1: > 91%; 2: 91 to 97%; 3: > 91%

###

assay: Half life in rat at 1 mg/kg, iv; type: ADME, organism-based; settings: in vivo
Please respond with reported half-life for every item in the list.
One number for each entry, in h.

INSERT INTO assay_data (compound_smiles, quantitative_result) VALUES
  ('O=C(c1cccc(F)c1)N1CCc2oc(-c3ccc(F)cn3)nc2C1', 2);

Reported half-life for O=C(c1cc(F)cc(Cl)c1)N1CCc2oc(-c3ccc(F)cn3)nc2C1 : what is it?
8.9

###

test: Clearance in monkey at 0.5 mg/kg, iv after 24 hrs; format: ADME, organism-based, Macaca mulatta; settings: rhesus monkey, in vivo
Please respond with reported clearance for every item in the list.
Your answer should be a number followed by the unit of measure.

Known clearance results, listed for orientation:
INSERT INTO results (compound_smiles, attribute_measured, result) VALUES
  ('O=C(c1cccc(F)c1)N1CCc2oc(-c3ccc(F)cn3)nc2C1', 'clearance', '2.8 mL/min/kg'),
  ('O=C(c1ccccc1)N1CCc2oc(-c3ccc(F)cn3)nc2C1', 'clearance', '4.2 mL/min/kg');

Reported clearance for O=C(c1cc(F)cc(Cl)c1)N1CCc2oc(-c3ccc(F)cn3)nc2C1 : what is it?
1.7 mL/min/kg

###

Please respond with reported clearance for every item in the list.
assay: Clearance in rat at 1 mg/kg, iv after 24 hrs; type: ADME, organism-based; conditions: in vivo

INSERT INTO results (compound_smiles, result) VALUES
  ('O=C(c1cccc(F)c1)N1CCc2oc(-c3ccc(F)cn3)nc2C1', '10.8 mL/min/kg');

Reported clearance for O=C(c1cc(F)cc(Cl)c1)N1CCc2oc(-c3ccc(F)cn3)nc2C1 : what is it?
3.8 mL/min/kg
